Tested on: CAN97-83-GFP1 (A2a) hMPV in H1-HeLa cells
protocol: hMPV H1-Hela EC50, anti-nucleoprotein ELISA (Example X)
Format: cell-based
condition_context: human metapneumovirus, 96 h, read-out: hMPV H1-Hela EC50 (nM) (per Ex. X)
EC50 strictly under 400 nM means Yes; at 400 nM or over means No.

| compound | discrete_label |
| --- | --- |
| CCCCCCCCCCCCCCCCCCC[C@H](COP(=O)(O)OC[C@@]1(C#N)O[C@@H](c2ccc3c(N)ncnn23)[C@H](O)[C@@H]1O)OCc1ccc(-n2cncn2)c(C#N)c1 | Yes |
| CCCCCCCCCCCCCCCCCC[C@H](COP(=O)(O)OC[C@@]1(C#N)O[C@@H](c2ccc3c(N)ncnn23)[C@H](O)[C@@H]1O)OCc1cc(Cl)cc(C#N)c1 | No |
| CCCCCCCCCCCCCCCCCCC[C@H](COP(=O)(O)OC[C@@]1(C#N)O[C@@H](c2ccc3c(N)ncnn23)[C@H](O)[C@@H]1O)OCc1cc(F)cc(C#N)c1 | No |
| CCCCCCCCCCCCCCCCCCOCC(COc1cc(F)cc(C#N)c1)COP(=O)(O)OC[C@@]1(C#N)O[C@@H](c2ccc3c(N)ncnn23)[C@H](O)[C@@H]1O (stereo partly shown) | No |
| CCCCCCCCCCCCCCCCC[C@H](COP(=O)(O)OC[C@@]1(C#N)O[C@@H](c2ccc3c(N)ncnn23)[C@H](O)[C@@H]1O)OCc1cc(F)cc(C#N)c1 | No |
| CCCCCCCCCCCCCCCCCC[C@H](COP(=O)(O)OC[C@@]1(C#N)O[C@@H](c2ccc3c(N)ncnn23)[C@H](O)[C@@H]1O)OCc1cc(F)cc(C#N)c1 | Yes |
| CCCCCCCCCCCCCCCCCCCC[C@H](COP(=O)(O)OC[C@@]1(C#N)O[C@@H](c2ccc3c(N)ncnn23)[C@H](O)[C@@H]1O)OCc1cc(F)cc(C#N)c1 | No |
| CCCCCCCCCCCCCCCCCCC[C@H](COP(=O)(O)OC[C@@]1(C#N)O[C@@H](c2ccc3c(N)ncnn23)[C@H](O)[C@@H]1O)Oc1ccc(C#N)c(OC(C)C)c1 | Yes |
| CCCCCCCCCCCCCCCCOC[C@@H](COP(=O)(O)OC[C@@]1(C#N)O[C@@H](c2ccc3c(N)ncnn23)[C@H](O)[C@@H]1O)OCc1cc(F)cc(C#N)c1 | Yes |
| CCCCCCCCCCCCCCCCCCOC[C@@H](COP(=O)(O)OC[C@@]1(C#N)O[C@@H](c2ccc3c(N)ncnn23)[C@H](O)[C@@H]1O)Oc1ccc(C#N)nc1 | Yes |
| CCCCCCCCCCCCCCCCCCOC[C@H](COP(=O)(O)OC[C@@]1(C#N)O[C@@H](c2ccc3c(N)ncnn23)[C@H](O)[C@@H]1O)OCc1cc(F)cc(C#N)c1 | No |
| CCCCCCCCCCCCCCCCCCC[C@H](COP(=O)(O)OC[C@@]1(C#N)O[C@@H](c2ccc3c(N)ncnn23)[C@H](O)[C@@H]1O)OCc1ccc(C#N)c(OC(C)C)c1 | No |
| CCCCCCCCCCCCCCCCCCC[C@H](COP(=O)(O)OC[C@@]1(C#N)O[C@@H](c2ccc3c(N)ncnn23)[C@H](O)[C@@H]1O)OCc1cc(Cl)cc(C#N)c1 | No |
| CCCCCCCCCCCCCCCC[C@@H](COP(=O)(O)OC[C@@]1(C#N)O[C@@H](c2ccc3c(N)ncnn23)[C@H](O)[C@@H]1O)OCc1cc(F)cc(C#N)c1 | No |
| CCCCCCCCCCCCCCCCC[C@H](COP(=O)(O)OC[C@@]1(C#N)O[C@@H](c2ccc3c(N)ncnn23)[C@H](O)[C@@H]1O)OCc1cc(Cl)cc(C#N)c1 | No |
| CCCCCCCCCCCCCCC[C@H](COP(=O)(O)OC[C@@]1(C#N)O[C@@H](c2ccc3c(N)ncnn23)[C@H](O)[C@@H]1O)OCc1cc(F)cc(C#N)c1 | No |
| CCCCCCCCCCCCCCCCCCOC[C@H](COP(=O)(O)OC[C@@]1(C#N)O[C@@H](c2ccc3c(N)ncnn23)[C@H](O)[C@@H]1O)OCc1cccc(C#N)n1 | Yes |
| CCCCCCCCCCCCCCCCCCOC[C@H](COP(=O)(O)OC[C@@]1(C#N)O[C@@H](c2ccc3c(N)ncnn23)[C@H](O)[C@@H]1O)Oc1ccc(C#N)c(OC(C)C)c1 | Yes |
| CCCCCCCCCCCCCCCCCCOC[C@H](COP(=O)(O)OC[C@@]1(C#N)O[C@@H](c2ccc3c(N)ncnn23)[C@H](O)[C@@H]1O)OCc1ccc(C#N)c(Cl)c1 | Yes |
